Details: human gut metagenome, 24 h, 2 µM; note: call rule not given here
metricName: Bacterial Biotransformation

{"columns": ["molecule", "result"],
 "data": [
  ["OC(c1cc(C(F)(F)F)nc2c(C(F)(F)F)cccc12)C1CCCCN1 (stereo not drawn) [MEFLOQUINE]", "Compound metabolized"],
  ["CCOc1cc(CC(=O)N[C@@H](CC(C)C)c2ccccc2N2CCCCC2)ccc1C(=O)O [REPAGLINIDE]", "Compound metabolized"],
  ["CC#C[C@]1(O)CC[C@H]2[C@@H]3CCC4=CC(=O)CCC4=C3[C@@H](c3ccc(N(C)C)cc3)C[C@@]21C [MIFEPRISTONE]", "Compound metabolized"],
  ["COc1cc2nc(N3CCN(C(=O)C4CCCO4)CC3)nc(N)c2cc1OC (stereo not drawn) [TERAZOSIN]", "Compound NOT metabolized"],
  ["CCc1oc2ccccc2c1C(=O)c1cc(Br)c(O)c(Br)c1 [BENZBROMARONE]", "Compound metabolized"],
  ["CCc1cccc2c3c([nH]c12)C(CC)(CC(=O)O)OCC3 (stereo not drawn) [ETODOLAC]", "Compound metabolized"],
  ["CNCC[C@H](Oc1cccc2ccccc12)c1cccs1 [DULOXETINE]", "Compound metabolized"],
  ["CC(=O)CCCCn1c(=O)c2c(ncn2C)n(C)c1=O [PENTOXIFYLLINE]", "Compound metabolized"],
  ["CC(=O)OCC(=O)NCCCOc1cccc(CN2CCCCC2)c1 [ROXATIDINE ACETATE]", "Compound metabolized"],
  ["CN(C)CCc1c[nH]c2ccc(CS(=O)(=O)N3CCCC3)cc12 [ALMOTRIPTAN]", "Compound metabolized"],
  ["O=C1CN2Cc3c(ccc(Cl)c3Cl)N=C2N1 [ANAGRELIDE]", "Compound metabolized"],
  ["CC(NC(C)(C)C)C(=O)c1cccc(Cl)c1 (stereo not drawn) [BUPROPION]", "Compound NOT metabolized"],
  ["CN[C@H]1CC[C@@H](c2ccc(Cl)c(Cl)c2)c2ccccc21 [SERTRALINE]", "Compound metabolized"],
  ["C#C[C@]1(OC(C)=O)CC[C@H]2[C@@H]3CCC4=C[C@@H](OC(C)=O)CC[C@@H]4[C@H]3CC[C@@]21C [ETHYNODIOL DIACETATE]", "Compound metabolized"],
  ["CCN(CC)CCNC(=O)c1cc(S(C)(=O)=O)ccc1OC [TIAPRIDE]", "Compound metabolized"],
  ["O=C([O-])C[C@H](O)C[C@H](O)/C=C/c1c(C2CC2)nc2ccccc2c1-c1ccc(F)cc1.O=C([O-])C[C@H](O)C[C@H](O)/C=C/c1c(C2CC2)nc2ccccc2c1-c1ccc(F)cc1.[Ca+2] [PITAVASTATIN CALCIUM]", "Compound NOT metabolized"],
  ["CCOc1ccc2nc(S(N)(=O)=O)sc2c1 [ETHOXZOLAMIDE]", "Compound metabolized"],
  ["CN(C/C=C/C#CC(C)(C)C)Cc1cccc2ccccc12 [TERBINAFINE]", "Compound NOT metabolized"]
]}
